FYI, the data here is from ChEMBL document CHEMBL1177792.

- test: Volume of distribution at steady state in Sprague-Dawley rat at 1 mg/kg, iv and 10 mg/kg, po
- Type: ADME, organism-based
- measurement conditions: in vivo, read-out: Vdss
Listing of entries alongside the reported Vd.

GET /values?readout=Vd&item= "O=C(c1ccc(Oc2ccc(Cl)cc2)nc1)N1CCCN(C2CCC2)CC1" 3 L/kg

For "N#Cc1cccc(Oc2ccc(C(=O)N3CCCN(C4CCC4)CC3)cn2)c1" then? 1.4 L/kg

For "O=C(c1ccc(Oc2cccc(Cl)c2)nc1)N1CCCN(C2CCC2)CC1" then? 5 L/kg

---

- test: Metabolic stability in human liver microsomes assessed as compound remaining after 30 mins
- Format: ADME, Microsome
- measurement conditions: read-out: Stability
Listing of entries alongside the reported remaining at 0.5 h.
Your answer is read as %, so omit the unit and give the number.

Look over these answered cases.
O=C(c1ccc(Oc2cccc(Cl)c2)nc1)N1CCCN(C2CC2)CC1	70
O=C(c1ccc(Oc2ccc(Cl)c(Cl)c2)nc1)N1CCCN(C2CCC2)CC1	30
O=C(c1ccc(Oc2ccccc2)nc1)N1CCCN(C2CCC2)CC1	99
O=C(c1ccc(Oc2cccc(Cl)c2)nc1)N1CCCN(C2CCC2)CC1	98
O=C(c1ccc(Oc2cccc(F)c2)nc1)N1CCCN(C2CCC2)CC1	99
O=C(c1ccc(Oc2ccc(F)cc2)cn1)N1CCCN(C2CCC2)CC1	95
O=C(c1ccc(Oc2ccc(Cl)cc2)nc1)N1CCCN(C2CCC2)CC1	95
O=C(c1ccc(Sc2ccc(F)cc2)cn1)N1CCCN(C2CCC2)CC1	82

GET /values?readout=remaining at 0.5 h&item= "O=C(c1ccc(Oc2ccc(F)cc2)nc1)N1CCCN(C2CCC2)CC1" 87

For "N#Cc1cccc(Oc2ccc(C(=O)N3CCCN(C4CCC4)CC3)cn2)c1" then? 99

---

Listing of entries alongside the reported fraction unbound.
- test: Fraction unbound in rat plasma
- Type: ADME, cell-free
Respond numerically, and do not add a unit to the figure.

N#Cc1cccc(Oc2ccc(C(=O)N3CCCN(C4CCC4)CC3)cn2)c1	0.79

We next turn to a different compound, shown below.
GET /values?readout=fraction unbound&item= "O=C(c1ccc(Oc2ccc(F)cc2)nc1)N1CCCN(C2CCC2)CC1" 0.15

---

- test: Clearance in Beagle dog at 1 mg/kg, iv and 5 mg/kg, po
- Format: ADME, organism-based, Canis lupus familiaris
- measurement conditions: in vivo
measured quantity: clearance
Entry format: amount then unit.

Look over these answered cases.
O=C(c1ccc(Oc2ccc(F)cc2)cn1)N1CCCN(C2CCC2)CC1	35 mL/min/kg
O=C(c1ccc(Oc2ccc(F)cc2)nc1)N1CCCN(C2CCC2)CC1 [JNJ-39220675]	35 mL/min/kg

GET /values?readout=clearance&item= "N#Cc1cccc(Oc2ccc(C(=O)N3CCCN(C4CCC4)CC3)cn2)c1" 21 mL/min/kg

---

- target under test: Histamine H3 receptor (Homo sapiens)
- Sequence (Q9Y5N1 whole entry): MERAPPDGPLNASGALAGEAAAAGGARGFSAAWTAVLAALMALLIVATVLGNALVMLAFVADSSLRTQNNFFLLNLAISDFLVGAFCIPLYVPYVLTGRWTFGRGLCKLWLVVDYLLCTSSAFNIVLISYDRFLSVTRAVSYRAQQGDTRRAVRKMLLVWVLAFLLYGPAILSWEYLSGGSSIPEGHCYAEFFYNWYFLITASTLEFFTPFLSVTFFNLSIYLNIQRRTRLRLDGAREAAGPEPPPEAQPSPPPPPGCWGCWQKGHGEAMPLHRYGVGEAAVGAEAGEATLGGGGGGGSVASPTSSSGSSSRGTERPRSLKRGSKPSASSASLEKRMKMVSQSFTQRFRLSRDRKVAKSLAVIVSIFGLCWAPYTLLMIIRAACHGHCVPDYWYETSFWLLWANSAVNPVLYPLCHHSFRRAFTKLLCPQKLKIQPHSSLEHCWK
- test: Displacement of [125I]-iodoproxyfan from human recombinant histamine H3 receptor expressed in human SK-N-MC cells after 1 hr by scintillation counting
pKi: −log10 of the molar value.
Please use t whenever pKi is not below 8, and f whenever it is.

O=C(c1ccc(Oc2ccccc2Cl)nc1)N1CCN(C2CCCC2)CC1	f

pKi >= 8 for "O=C(c1ccc(Oc2ccc(F)cc2)cn1)N1CCCN(C2CCC2)CC1" ? t

For "CC(C)N1CCN(C(=O)c2ccc(Oc3ccccc3)nc2)CC1" then? f

For "O=C(c1cc(Oc2ccc(F)cc2)ccn1)N1CCCN(C2CCC2)CC1" then? t

For "CC(C)N1CCCN(C(=O)c2cccc(Oc3ccc(Cl)c(Cl)c3)n2)CC1" then? f

For "CC(C)N1CCN(C(=O)c2ccc(Oc3cccc(Cl)c3)nc2)CC1" then? f

For "O=C(c1ccc(Oc2ccc(F)cc2)nc1)N1CCCNCC1" then? f

For "O=C(c1ccc(Oc2ccc(F)cc2)nc1)N1CCN(C2CC2)CC1" then? f

For "CC(C)N1CCCN(C(=O)c2ccc(Oc3ccc(Cl)c(Cl)c3)cn2)CC1" then? t

For "O=C(c1ccc(Sc2ccccc2)cn1)N1CCCN(C2CCC2)CC1" then? t

For "CN1CCCN(C(=O)c2ccc(Oc3ccc(F)cc3)nc2)CC1" then? f

For "O=C(c1ccc(Oc2ccccc2F)cn1)N1CCCN(C2CCC2)CC1" then? t

For "CC(C)N1CCCN(C(=O)c2ccc(Oc3ccc(Cl)c(Cl)c3)nc2)CC1" then? f

For "O=C(c1ccc(Oc2ccc(F)cc2)nc1)N1CCCN(C2CC2)CC1" then? f

For "O=C(c1ccc(Oc2ccccc2)nc1)N1CCCN(C2CCC2)CC1" then? t

For "O=C(c1ccc(Sc2ccccc2)nc1)N1CCCN(C2CCC2)CC1" then? t
